assay: in vitro; parameters: species or system CCD841, HEK293; conditions: human, hb2 cells, read-out: HB-2 Cells Viability (%)
Quantity kind: viability at 48 h, 10 µM (%)
Supply the numeric figure in %, leaving out any unit text.

Reference set, count: 5
>>> recorded_result("O=C(CCl)NCC#Cc1ccccc1 [PCM-0103007]")
78.1
>>> recorded_result("C=CC(=O)N1CCC2(CCN(C)C2=O)CC1 [PCM-0102475]")
94.8
>>> recorded_result("O=C(CCl)NNC(=O)c1ccc(F)cc1 [PCM-0102430]")
94.9
>>> recorded_result("C=CC(=O)NC1(CO)Cc2ccccc2C1 [PCM-0102446]")
101
>>> recorded_result("Cc1noc(C)c1CNC(=O)CCl [PCM-0102780]")
102

Pending compound:
Query string: What value of viability at 48 h, 10 µM has been reported for the following compound? C=CC(=O)N1CCC(S(=O)(=O)NC)C1 (stereo not drawn) [PCM-0102463]
Result string: 97.2

====

experiment: in vitro; set-up: species or system HB2, CCD841; details: human, hek293 cells
Quantity kind: viability at 48 h, 10 µM (%)
Kindly answer with a numeric value in %, unit omitted.

These solved cases illustrate the format of a correct answer.
>>> recorded_result("O=C(CCl)Nc1ccc(N2CCCCC2)nc1")
4.4
>>> recorded_result("COc1ccc(Cl)cc1C(=O)NNC(=O)CCl")
25.1
>>> recorded_result("CN(C(=O)CCl)C(C)(C)C#N")
77.7
>>> recorded_result("O=C(CCl)N(C1CC1)C1CCS(=O)(=O)C1 (stereo not drawn)")
67.9
>>> recorded_result("O=C(CCl)NN1C(=O)NC2(CCCCC2)C1=O")
103

Please turn your attention to the following entry.
Query string: Name the reported viability at 48 h, 10 µM value associated with the molecule `COc1ccc(NC(=O)CCl)cc1Cl`
Result string: 2.6

====

Measured viability at 48 h, 10 µM by item
test: in vitro; set-up: species or system HB2, CCD841; conditions: human, hek293 cells
Kindly provide the numeric value in % only, without the unit symbol.

Sample answers from the record:
>>> recorded_result("CCOC(=O)C1CCCN(C(=O)CCl)C1 (stereo not drawn)")
98.8
>>> recorded_result("CC(=O)c1sc(NC(=O)CCl)nc1C")
87.2
>>> recorded_result("CC(c1cc2ccccc2o1)N(C)C(=O)CCl (stereo not drawn)")
10.1
>>> recorded_result("Cc1noc(C)c1CNC(=O)CCl")
101
>>> recorded_result("C=CC(=O)N(C)C1CCCc2nc(CC)sc21 (stereo not drawn)")
97.3

--- query ---
Query string: What value of viability at 48 h, 10 µM has been reported for the following molecule? `CC(C)(C)C(=O)NC(=O)CCl`
Result string: 98.9

====

Attribute: NUDT7
target: NUDT7 (Homo sapiens); construct: residues 14-235, E. coli, pNIC28-Bsa4, N-terminal His6 tag removed by TEV, construct 26672 Da; parameters: Intact protein LC/MS covalent labelling, fragments in pools of five, 200 uM each, 4 °C; details: 24 h, 4 °C, pool of five; 200 µM; covalent
Sequence (P0C024 14-235): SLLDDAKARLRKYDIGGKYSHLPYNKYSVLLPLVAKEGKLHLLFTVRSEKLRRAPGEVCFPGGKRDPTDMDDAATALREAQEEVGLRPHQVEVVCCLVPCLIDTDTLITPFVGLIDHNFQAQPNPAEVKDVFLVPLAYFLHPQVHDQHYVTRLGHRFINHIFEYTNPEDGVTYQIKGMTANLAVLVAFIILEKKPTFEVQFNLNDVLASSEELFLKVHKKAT
Give only the figure.

Consider the reported NUDT7 for these compounds:
>>> recorded_result("C=CC(=O)NC1CCCN(c2cnn(C)c2)C1 (centres unmarked)")
0
>>> recorded_result("Cl.O=C(CCl)N1CCN(Cc2c(F)cccc2Cl)CC1")
0
>>> recorded_result("O=C(CCl)NC1CCCC(C(F)(F)F)C1 (centres unmarked)")
0
>>> recorded_result("C=CC(=O)N1CC(C)(C)C1c1cccs1 (centres unmarked)")
0
>>> recorded_result("O=C(CCl)Nc1cccc(C(=O)N2CCSCC2)c1")
0

Query string: Recorded NUDT7 for `COc1cccc(NC(=O)CCl)c1` , please?
Result string: 0

Query string: Report NUDT7 for `Cc1ccc(C(=O)N2CCN(C(=O)CCl)CC2)cc1` please.
Result string: 0

Query string: Suppose we examine the compound CC(NC(=O)CCl)c1cccc2ccccc12 (centres unmarked) ; what NUDT7 value has been reported?
Result string: 0.32

Query string: Reported NUDT7 for O=C(CCl)N1CCOC(c2ccc(F)cc2)C1 (centres unmarked) : what is it?
Result string: 0

Query string: Can you look up the measured NUDT7 of `COC(=O)c1cc(NC(=O)CCl)cn1C` for me?
Result string: 0

Query string: Please give the measured NUDT7 for this compound: `Cc1ccc(NC(=O)NC(=O)CCl)cc1C`
Result string: 0.09

====

In this section, each of the compounds is paired with its reported viability at 48 h, 10 µM.
assay: in vitro; design: species or system CCD841, HEK293; conditions: human, hb2 cells, read-out: HB-2 Cells Viability (%)
# output: numeric value plus its unit

Example cases with answers are listed next.
>>> recorded_result("CC(C)n1nccc1NC(=O)CCl.Cl [PCM-0102472]")
"92.7%"
>>> recorded_result("CCN1CCC(NC(=O)CCl)CC1.Cl [PCM-0102103]")
"96%"

Query string: Look at this compound and give its reported viability at 48 h, 10 µM. COC(=O)c1c(NC(=O)CCl)sc2c1CCCC2 [PCM-0102143]
Result string: 31.6%

Query string: What value of viability at 48 h, 10 µM has been recorded for this entry: C=CC(=O)Nc1cccc(C#N)c1 [PCM-0102956]
Result string: 104%

Query string: What measured viability at 48 h, 10 µM goes with O=C(CCl)N=c1sccn1Cc1cccc2ccccc12 [PCM-0102842] ?
Result string: 8.4%

Query string: Which value of viability at 48 h, 10 µM has been reported for COc1cc(Cl)c(C)cc1NC(=O)CCl [PCM-0102210] in the records?
Result string: 8.5%

Query string: Given the compound O=C(CCl)NC(=O)NCC(F)(F)F [PCM-0103037] , what is its reported viability at 48 h, 10 µM?
Result string: 89%

Query string: Give its viability at 48 h, 10 µM value. Item: CC1CCC2(CC1)NC(=O)N(NC(=O)CCl)C2=O (centres unmarked) [PCM-0102666]
Result string: 97.3%

Query string: Any idea what its viability at 48 h, 10 µM is? The compound is O=C(CCl)NC(=O)NCc1ccccc1 [PCM-0102122]
Result string: 54.8%

Query string: Which value of viability at 48 h, 10 µM has been reported for Cc1ccc(S(=O)(=O)N2CCN(C(=O)CCl)CC2)c(C)c1 [PCM-0102628] in the records?
Result string: 35.6%

Query string: Please look up its viability at 48 h, 10 µM: COC(=O)c1cccc(NC(=O)CCl)c1O [PCM-0102851]
Result string: 106%

====

assay: in vitro; design: species or system HB2, HEK293; settings: human, ccd841 cells
Assign labels as follows, please: true (1) for viability at 48 h, 10 µM below 80%; false (0) for viability at 48 h, 10 µM equal to or exceeding 80%.

Example results:
>>> category_label("C=CC(=O)Nc1cccc(C(F)(F)F)c1 [PCM-0102573]")
"false (0)"
>>> category_label("C=CC(=O)NC1CCCCC1n1cccn1 (stereo not drawn) [PCM-0102440]")
"false (0)"
>>> category_label("CC1(C)CCCN1C(=O)CCl [PCM-0103060]")
"false (0)"

Query string: Is 80% strictly greater than the compound's reported viability at 48 h, 10 µM? compound: C=CC(=O)Nc1cc(-c2ccnn2C)ccc1C [PCM-0102543]
Result string: false (0)

Query string: Hello, I'm reviewing records and need to know if viability at 48 h, 10 µM of N#Cc1ccc(CNC(=O)CCl)cc1 [PCM-0102946] is below 80%. Could you check?
Result string: true (1)

Query string: Strictly below 80% in viability at 48 h, 10 µM? O=C(CCl)Nc1nc2c(s1)CCC2 [PCM-0102457]
Result string: true (1)

Query string: Please determine if CC(C)c1cccc(NC(=O)CCl)c1 [PCM-0102429] is below 80% in terms of viability at 48 h, 10 µM.
Result string: true (1)

Query string: Hello, I'm reviewing records and need to know if viability at 48 h, 10 µM of COC(=O)c1cc(NC(=O)CCl)cn1C [PCM-0102545] is below 80%. Could you check?
Result string: true (1)

Query string: Input O=C(CCl)Nc1nc2ccc(F)cc2s1 [PCM-0102294] ; condition: viability at 48 h, 10 µM strictly below 80%. Does it hold?
Result string: true (1)

Query string: Quick check: does CC(NC(=O)CCl)c1ccccc1Br (stereo not drawn) [PCM-0102256] have viability at 48 h, 10 µM under 80%?
Result string: true (1)
